# target.of.assay: Focal adhesion kinase 1 (Homo sapiens)
# Sequence (Q05397 whole entry): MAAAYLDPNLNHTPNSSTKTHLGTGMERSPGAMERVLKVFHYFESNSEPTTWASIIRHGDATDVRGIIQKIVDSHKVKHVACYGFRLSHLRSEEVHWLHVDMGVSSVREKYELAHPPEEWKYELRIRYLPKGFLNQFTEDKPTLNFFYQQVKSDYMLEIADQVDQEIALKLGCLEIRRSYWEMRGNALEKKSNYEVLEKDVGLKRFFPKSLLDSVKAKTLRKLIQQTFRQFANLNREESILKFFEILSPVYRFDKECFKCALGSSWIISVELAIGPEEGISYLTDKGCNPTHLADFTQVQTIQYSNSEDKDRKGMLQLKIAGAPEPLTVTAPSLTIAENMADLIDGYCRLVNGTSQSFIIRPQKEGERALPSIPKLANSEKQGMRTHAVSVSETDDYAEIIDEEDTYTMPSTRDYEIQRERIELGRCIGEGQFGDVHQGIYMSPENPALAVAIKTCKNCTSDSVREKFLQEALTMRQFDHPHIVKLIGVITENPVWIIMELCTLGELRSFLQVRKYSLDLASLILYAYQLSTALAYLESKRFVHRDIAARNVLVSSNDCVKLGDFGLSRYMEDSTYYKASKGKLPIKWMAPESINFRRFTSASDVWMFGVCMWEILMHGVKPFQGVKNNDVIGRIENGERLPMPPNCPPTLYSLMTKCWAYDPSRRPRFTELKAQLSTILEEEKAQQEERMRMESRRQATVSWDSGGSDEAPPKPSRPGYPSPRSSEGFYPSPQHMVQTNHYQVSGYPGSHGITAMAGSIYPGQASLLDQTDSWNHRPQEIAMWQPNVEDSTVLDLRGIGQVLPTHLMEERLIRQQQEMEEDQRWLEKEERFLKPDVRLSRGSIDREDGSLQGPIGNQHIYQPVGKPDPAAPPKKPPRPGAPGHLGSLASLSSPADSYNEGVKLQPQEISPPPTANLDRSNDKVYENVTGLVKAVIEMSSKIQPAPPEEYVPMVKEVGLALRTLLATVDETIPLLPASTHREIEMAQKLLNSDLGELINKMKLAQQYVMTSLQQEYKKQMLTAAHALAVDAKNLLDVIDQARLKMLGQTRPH
# procedure.summary: Inhibition of FAK (unknown origin)
recorded.endpoint: IC50

{"given.smiles": "O=C(c1cccc(-c2n[nH]c3ncc(Cc4cc(F)ccc4F)cc23)c1)N1CCC[C@H](O)C1", "test.value": "> 100 µM"}

---

A short record of IC50 observed with High affinity nerve growth factor receptor (Homo sapiens) follows.
Sequence (P04629 whole entry): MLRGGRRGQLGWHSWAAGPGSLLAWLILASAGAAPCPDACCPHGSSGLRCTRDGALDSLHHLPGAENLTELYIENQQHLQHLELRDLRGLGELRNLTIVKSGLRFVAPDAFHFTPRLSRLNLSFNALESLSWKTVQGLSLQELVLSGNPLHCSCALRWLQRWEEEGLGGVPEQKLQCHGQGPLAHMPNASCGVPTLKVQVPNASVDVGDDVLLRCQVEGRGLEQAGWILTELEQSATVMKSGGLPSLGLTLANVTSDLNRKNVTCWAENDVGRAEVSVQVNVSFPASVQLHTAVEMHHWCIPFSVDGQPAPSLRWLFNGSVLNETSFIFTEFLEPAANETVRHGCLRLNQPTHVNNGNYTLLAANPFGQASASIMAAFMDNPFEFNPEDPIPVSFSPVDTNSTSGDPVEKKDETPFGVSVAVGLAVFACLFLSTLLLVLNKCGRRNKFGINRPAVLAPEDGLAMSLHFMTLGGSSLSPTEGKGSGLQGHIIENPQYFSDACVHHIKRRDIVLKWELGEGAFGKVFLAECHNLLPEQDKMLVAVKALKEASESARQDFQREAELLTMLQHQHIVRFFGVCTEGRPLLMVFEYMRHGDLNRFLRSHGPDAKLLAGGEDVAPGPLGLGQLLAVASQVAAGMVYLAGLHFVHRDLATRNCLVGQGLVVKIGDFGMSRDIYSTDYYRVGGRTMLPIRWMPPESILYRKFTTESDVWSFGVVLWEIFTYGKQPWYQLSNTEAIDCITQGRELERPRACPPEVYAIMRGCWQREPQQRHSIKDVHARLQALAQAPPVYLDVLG
recorded.endpoint: IC50 (nM)

{"given.smiles": "NC1CCN(C(=O)c2cccc(Nc3n[nH]c4ncc(Cc5cc(F)ccc5F)cc34)c2)CC1", "unit.text": "nM", "test.value": 437}
{"given.smiles": "O=C(c1cccc(Nc2n[nH]c3ncc(Cc4c(F)cccc4F)cc23)c1)N1CCOCC1", "unit.text": "nM", "test.value": 838}
{"given.smiles": "O=C(c1cccc(Nc2n[nH]c3ncc(Cc4cc(F)cc(F)c4)cc23)c1)N1CCOCC1", "unit.text": "nM", "test.value": 700}
{"given.smiles": "O=C(c1ccc(Nc2n[nH]c3ncc(Cc4cc(F)ccc4F)cc23)cc1)N1CCOCC1", "unit.text": "nM", "test.value": 980}
{"given.smiles": "O=C(c1cccc(Nc2n[nH]c3ncc(Cc4cccc(F)c4F)cc23)c1)N1CCOCC1", "unit.text": "nM", "test.value": 1970}
{"given.smiles": "CN1CCN(C(=O)c2ccc(Nc3n[nH]c4ncc(Cc5cc(F)ccc5F)cc34)cc2)CC1", "unit.text": "nM", "test.value": 389}
